Attribution: PubChem BioAssay (NCI)

- System: ACHN renal
- TEST_NAME: NCI-60 one-dose screen, 48 h (100 = growth as untreated, 0 = no growth, -100 = all killed)
- MEASUREMENT_PARAMETERS: 10 µM unless noted
About 83,000 compounds went through this panel and 20% of them were active in at least one assay; those are over-represented in the sample as a whole.
Field: growth. Provide a value for each of the compounds that follow.
One number for each entry, in %.

Example compounds with recorded growth:
> print(dat)
                               smiles.input  test.system  u   val
1         COc1cccc(N2CCN(c3cccc(C)n3)CC2)c1   ACHN renal  %   108
2  Oc1c(Cl)cc(Cl)c(Cl)c1Cc1c(O)c(Cl)cc(Cl)c1Cl   ACHN renal  %  18.4
3  Cc1cc2c(cc1C)[n+](Cc1ccc3ccccc3n1)cn2Cc1ccc2ccccc2n1   ACHN renal  %  56.5

I have 4 compounds here; please give me growth for each one.
1. COc1cnc2c(c1)C(=O)c1c-2n(CCCNC(C)C)c(=O)c2cc(F)ccc12
2. Cc1sc2nc(NCc3ccccc3)[nH]c(=O)c2c1C
3. COc1ccc(/C=C/C(=O)c2cccc(NS(C)(=O)=O)c2)cc1
4. COc1ccc(Cl)cc1Nc1nc(C(F)(F)F)ccc1C(=O)N/N=C/c1c(Cl)cccc1Cl

-69.4
84
93.4
39.2

Your task in this section: give growth for each listed record.
1. COc1ccc2[nH]c(=O)c(CNc3ccc(Nc4nccc(-c5ccc(Cl)cc5)n4)cc3)cc2c1
2. CCOC(=O)c1cc2oc(/C=C/c3cc(=O)c4cc(Cl)ccc4o3)cc2[nH]1
3. Nc1ccccc1C#Cc1ccccc1C#Cc1ccc(OCCCCCCOc2ccc(C#Cc3ccccc3C#Cc3ccccc3N)cc2)cc1
4. O=c1[nH]c(SCc2ccccc2)nc2nc(Nc3ccc(NC(=S)Nc4ccccc4)cc3)nc(-c3ccc(O)cc3O)c12

1. 90.1
2. 97.8
3. 102
4. 89.5

Batch request: growth per item, same order as input.
1. COc1cc(-c2nc3sc4c(c3c(=O)[nH]2)CCCCCC4)cc(OC)c1OC
2. COCCOCCOCCOCCOc1ccc2c(c1)C(=O)c1nc3ncccc3c(=O)n1-2
3. CC(=O)Nc1c(Cl)cc2c(c1Cl)Cc1ccccc1-2
4. C[C@@H]1C[C@@H]([C@@H](CC2CC(=O)NC(=O)C2)OC(=O)CC(=O)c2ccccc2)C(=O)[C@@H](C)C1
5. Cc1[nH]cnc1/C=C1\SC(N2CCCCC2)=NC1=O

1: 44.5; 2: -19.5; 3: 100; 4: 7.54; 5: 106

###

- Tested on: SF-539 CNS
- TEST_NAME: NCI-60 one-dose screen, 48 h
- MEASUREMENT_PARAMETERS: 10 µM unless noted
The panel holds about 83,000 compounds, 20% with a hit somewhere; the sample as a whole holds those more often. Activity calls are given as the source filed them. Rule for the calls: active = growth percent below 10; inactive = the rest.
Your response should consist of one outcome taken from Yes = active, No = inactive

Look over these answered cases.
COMPOUND	CLASS
O=C1/C(=C/c2cccc(Cl)c2)CCc2ccccc21	No
COC(=O)C1CCN(S(=O)(=O)c2ccc(-c3ccccc3)cc2)CC1	No
COc1cc(-c2nnc(-c3nc(-c4cc(OC)c(OC)c(OC)c4)n4ccccc34)o2)ccc1N	No
COc1ccc2c3c(ccc2c1)C(=O)/C(=C\O)CC3	No
COc1cc(-c2nc3nc4sc(C)c(C)c4c(=O)n3[nH]2)cc(OC)c1OC	No

Identify the outcome logged in this assay for the compound shown: COc1ccc(-c2cnc(SCC(=O)Nc3ccc(-c4nc5ccccc5s4)cc3)n2-c2ccc(OC)cc2)cc1
No

Entry Cc1ncc(C(=O)Nc2ccc(CN3CCN(C)CC3)c(C(F)(F)F)c2)cc1C#Cc1cncc2ncccc12 : call = ?
No

Outcome logged for O=C(O)C1C(c2ccccc2)c2ccccc2C(O)C1CO (centres undefined) in this assay:
No

State the result this test recorded for COc1ccc(CNC(=O)c2c(C)n([O-])c3cc(F)c(F)cc3[n+]2=O)cc1 .
No

Can you look up the reported call for Cc1ccc(OCC(=O)Nc2ccc(Oc3ccccc3)cc2)c([N+](=O)[O-])n1 for me?
No

Which outcome was entered for the compound C[C@H]1O[C@@H](O[C@H]2[C@@H](O)C[C@H](O[C@H]3[C@@H](O)C[C@H](O[C@H]4CC[C@]5(C)C6C[C@@H](O)[C@]7(C)[C@@H](C8=CC(=O)OC8)CC[C@]7(O)C6CC[C@@H]5C4)O[C@@H]3C)O[C@@H]2C)C[C@H](O)[C@@H]1O (some centres undefined) in this test?
Yes

// return assay outcome for CC(C)=CCNc1ncnc2c1ncn2C1OC(COP(=O)(O)O)C(O)C1O (centres undefined)
No

Hey, what did the test say about NS(=O)(=O)c1ccc(-n2ncc3c(N/N=C/c4ccccc4)ncnc32)cc1 ?
No

Hi team, can someone confirm the assay call for CCNCCCn1c2c(c3ccc(F)cc3c1=O)C(=O)c1cc(OC)cnc1-2 ?
Yes
